- Test system: human ETB receptor (Homo sapiens)
- Construct: expressed in transfected cells; host or cells: COS7 cells
- Sequence (P24530 27-442): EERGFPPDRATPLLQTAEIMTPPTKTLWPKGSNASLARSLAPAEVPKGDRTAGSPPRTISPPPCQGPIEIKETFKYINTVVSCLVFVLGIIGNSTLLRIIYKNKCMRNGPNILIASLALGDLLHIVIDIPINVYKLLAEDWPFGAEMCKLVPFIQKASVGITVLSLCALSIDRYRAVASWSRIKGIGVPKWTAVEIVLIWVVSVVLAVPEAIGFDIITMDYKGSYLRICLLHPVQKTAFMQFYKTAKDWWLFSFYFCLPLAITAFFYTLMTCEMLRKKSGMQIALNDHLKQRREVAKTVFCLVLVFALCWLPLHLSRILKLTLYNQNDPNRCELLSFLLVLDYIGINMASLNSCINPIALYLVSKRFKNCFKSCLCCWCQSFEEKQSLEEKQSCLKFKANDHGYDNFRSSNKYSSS
- Procedure summary: Endothelin binding inhibition, Binding Test #2: competition with 125I-ET-1 for ETB receptors on transfected COS7 cell membranes
- Setup conditions: incubation at 24° C. (values marked †)
Measured metric: pIC50
Note on pIC50: it is the negative log10 of concentration, concentration in mol/L.

Consider the reported pIC50 for these molecules:
| Molecule | Test system | pIC50 |
| --- | --- | --- |
| CCCc1cc2c(cc1OCc1sccc1S(=O)(=O)Nc1onc(C)c1Br)OCO2 | human ETB receptor (Homo sapiens) | 6.39 |
| Cc1noc(NS(=O)(=O)c2ccc(-c3cc4ccccc4s3)s2)c1Br | human ETB receptor (Homo sapiens) | 6.10 |
| COc1cccc(OC(=O)c2sccc2S(=O)(=O)Nc2onc(C)c2Br)c1 | human ETB receptor (Homo sapiens) | 4.05 |
| Cc1ccc(CC(=O)c2sccc2S(=O)(=O)Nc2onc(C)c2C)c(C)c1 | human ETB receptor (Homo sapiens) | 4.76 |
| Cc1cc(C)c(NS(C)(=O)=O)c(C)c1NC(=O)c1sccc1S(=O)(=O)Nc1onc(C)c1Cl | human ETB receptor (Homo sapiens) | 4.17 |

Prompt: I'm curious: which pIC50 was measured for "Cc1noc(NS(=O)(=O)c2ccsc2C(=O)OCCc2ccc3c(c2)OCO3)c1Cl" tested on human ETB receptor (Homo sapiens)?
Completion: 5.21

Prompt: Follow-up item: "Cc1ccccc1-c1ccsc1S(=O)(=O)Nc1onc(C)c1Br"
Completion: 4.26

Prompt: Follow-up item: "COc1ccc2c(S(=O)(=O)Nc3onc(C)c3Cl)c(Cc3ccc4c(c3)OCO4)sc2c1"
Completion: 5.62

Prompt: Follow-up item: "Cc1cc(C)c(C(=O)O)c(C)c1NC(=O)c1sccc1S(=O)(=O)Nc1onc(C)c1Cl"
Completion: 4.65

Prompt: Follow-up item: "Cc1ccc(-c2ccsc2S(=O)(=O)Nc2onc(C)c2Br)c(C)c1"
Completion: 4.22

Prompt: Follow-up item: Cc1noc(NS(=O)(=O)c2ccsc2C(=O)C(C#N)c2ccc3c(c2)OCO3)c1Cl (stereo not drawn)
Completion: 4.57

Prompt: Follow-up item: "CCCc1ccc(-c2ccsc2S(=O)(=O)Nc2onc(C)c2Br)cc1"
Completion: 5.07

Prompt: Follow-up item: "Cc1ccc(OCc2sccc2S(=O)(=O)Nc2onc(C)c2Br)c(C)c1"
Completion: 5.35
